System: MOLT-4
Test: Growth inhibition of human MOLT4 cells after 48 hrs
Format: functional
Conditions: MOLT-4, 48 h
REPORTED_PROPERTY: GI50 (µM)
Quick reminder: number only, in µM, skip the unit.

Example compounds with recorded GI50:
Cn1c2ccccc2c2c(=O)n(CCCC(=O)NCC(=O)N(C(=O)NC3CCCCC3)C3CCCCC3)c3c(-c4ccccc4)nnn3c21 = 14.5
Cn1c2ccccc2c2c(=O)n(CCCC(=O)NCCc3c[nH]cn3)c3c(-c4ccccc4)nnn3c21 = 3.98

Turning now to a further compound:
Query: Quick one: GI50 for `CCCCN(CCCC)CCCn1c(=O)c2c3ccccc3n(C)c2n2nnc(-c3ccccc3)c12` ?
Result: 13.8

###

Tested on: SF-539
Assay: Growth inhibition of human SF539 cells after 48 hrs
Assay type: functional
Settings: SF-539, 48 h, read-out: pTGI (converted)
REPORTED_PROPERTY: TGI

Example compounds with recorded TGI:
CCCCN(CCCC)CCCn1c(=O)c2c3ccccc3n(C)c2n2nnc(-c3ccccc3)c12 = > 100 µM
Cn1c2ccccc2c2c(=O)n(CCCC(=O)NCC(=O)N(C(=O)NC3CCCCC3)C3CCCCC3)c3c(-c4ccccc4)nnn3c21 = 57.5 µM
CCOC(=O)CNC(=O)CCCn1c(=O)c2c3ccccc3n(C)c2n2nnc(-c3ccccc3)c12 = 11.7 µM

Turning now to a further compound:
Query: Quick one: TGI for `Cn1c2ccccc2c2c(=O)n(CCCC(=O)NCCc3c[nH]cn3)c3c(-c4ccccc4)nnn3c21` ?
Result: 17.4 µM

###

Test system: TK-10
Experiment: Growth inhibition of human TK10 cells after 48 hrs
Type: functional
Conditions: TK-10, 48 h
Parameter: GI50. Scope: all listed entries.
Quick reminder: number only, in µM, skip the unit.

Example compounds with recorded GI50:
Cn1c2ccccc2c2c(=O)n(CCCC(=O)NCCc3c[nH]cn3)c3c(-c4ccccc4)nnn3c21 = 4.79
CCCCN(CCCC)CCCn1c(=O)c2c3ccccc3n(C)c2n2nnc(-c3ccccc3)c12 = 1.91

Query: // fetch TK-10 GI50 for `CCOC(=O)CNC(=O)CCCn1c(=O)c2c3ccccc3n(C)c2n2nnc(-c3ccccc3)c12`
Result: 8.71

###

Parameter: GI50. Scope: all listed entries.
Tested on: 786-0
Experiment: Growth inhibition of human 786-0 cells after 48 hrs
Type: functional
Conditions: 786-0, 48 h
Quick reminder: number only, in µM, skip the unit.

Example compounds with recorded GI50:
Cn1c2ccccc2c2c(=O)n(CCCC(=O)NCC(=O)N(C(=O)NC3CCCCC3)C3CCCCC3)c3c(-c4ccccc4)nnn3c21 = 18.6
CCCCN(CCCC)CCCn1c(=O)c2c3ccccc3n(C)c2n2nnc(-c3ccccc3)c12 = 38.9
Cn1c2ccccc2c2c(=O)n(CCCC(=O)NCCc3c[nH]cn3)c3c(-c4ccccc4)nnn3c21 = 2.19

Turning now to a further compound:
Query: Quick one: GI50 for `CCOC(=O)CNC(=O)CCCn1c(=O)c2c3ccccc3n(C)c2n2nnc(-c3ccccc3)c12` ?
Result: 5.13

###

Parameter: TGI. Scope: all listed entries.
System: OVCAR-3
Experiment: Growth inhibition of human OVCAR-3 cells after 48 hrs
Format: functional
Conditions: OVCAR-3, 48 h, read-out: pTGI (converted)

Example compounds with recorded TGI:
Cn1c2ccccc2c2c(=O)n(CCCC(=O)NCCc3c[nH]cn3)c3c(-c4ccccc4)nnn3c21 = 16.2 µM
Cn1c2ccccc2c2c(=O)n(CCCC(=O)NCC(=O)N(C(=O)NC3CCCCC3)C3CCCCC3)c3c(-c4ccccc4)nnn3c21 = 95.5 µM
CCOC(=O)CNC(=O)CCCn1c(=O)c2c3ccccc3n(C)c2n2nnc(-c3ccccc3)c12 = 49 µM

Turning now to a further compound:
Query: Quick one: TGI for `CCCCN(CCCC)CCCn1c(=O)c2c3ccccc3n(C)c2n2nnc(-c3ccccc3)c12` ?
Result: > 100 µM

###

Test system: RXF 393
Assay: Growth inhibition of human RXF393 cells after 48 hrs
Type: functional
Conditions: RXF 393, 48 h
Parameter: log10(GI50). Scope: all listed entries.
Log scale reminder: GI50 in µM, then log10 taken.

Cn1c2ccccc2c2c(=O)n(CCCC(=O)NCCc3c[nH]cn3)c3c(-c4ccccc4)nnn3c21 = 0.87
Cn1c2ccccc2c2c(=O)n(CCCC(=O)NCC(=O)N(C(=O)NC3CCCCC3)C3CCCCC3)c3c(-c4ccccc4)nnn3c21 = 1.04
CCOC(=O)CNC(=O)CCCn1c(=O)c2c3ccccc3n(C)c2n2nnc(-c3ccccc3)c12 = 0.12
CCCCN(CCCC)CCCn1c(=O)c2c3ccccc3n(C)c2n2nnc(-c3ccccc3)c12 = 1.15

Turning now to a further compound:
Query: Quick one: log10(GI50) for `Cn1c2ccccc2c2c(=O)n(CCCC(=O)N(C(=O)NC3CCCCC3)C3CCCCC3)c3c(-c4ccccc4)nnn3c21` ?
Result: 1.80

###

System: UACC-257
Assay: Growth inhibition of human UACC257 cells after 48 hrs
Format: functional
Conditions: UACC-257, 48 h, read-out: pTGI (converted)
Parameter: TGI. Scope: all listed entries.
Quick reminder: number only, in µM, skip the unit.

CCCCN(CCCC)CCCn1c(=O)c2c3ccccc3n(C)c2n2nnc(-c3ccccc3)c12 = 83.2

Turning now to a further compound:
Query: Quick one: TGI for `Cn1c2ccccc2c2c(=O)n(CCCC(=O)NCCc3c[nH]cn3)c3c(-c4ccccc4)nnn3c21` ?
Result: 21.4

###

System: T47D
Assay: Growth inhibition of human T47D cells after 48 hrs
Assay type: functional
Conditions: read-out: pTGI (converted)
REPORTED_PROPERTY: TGI

Query: // fetch T47D TGI for `Cn1c2ccccc2c2c(=O)n(CCCC(=O)NCCc3c[nH]cn3)c3c(-c4ccccc4)nnn3c21`
Result: 25.1 µM

Query: Here is the next molecule: `Cn1c2ccccc2c2c(=O)n(CCCC(=O)NCC(=O)N(C(=O)NC3CCCCC3)C3CCCCC3)c3c(-c4ccccc4)nnn3c21`
Result: > 100 µM

Query: Here is the next molecule: `CCOC(=O)CNC(=O)CCCn1c(=O)c2c3ccccc3n(C)c2n2nnc(-c3ccccc3)c12`
Result: > 50.1 µM

Query: Here is the next molecule: `CCCCN(CCCC)CCCn1c(=O)c2c3ccccc3n(C)c2n2nnc(-c3ccccc3)c12`
Result: > 100 µM

###

Tested on: K562
Assay: Growth inhibition of human K562 cells after 48 hrs
Format: functional
Details: K562, 48 h
Parameter: GI50. Scope: all listed entries.

Example molecules with recorded GI50:
CCOC(=O)CNC(=O)CCCn1c(=O)c2c3ccccc3n(C)c2n2nnc(-c3ccccc3)c12 = 4.68 µM
Cn1c2ccccc2c2c(=O)n(CCCC(=O)NCC(=O)N(C(=O)NC3CCCCC3)C3CCCCC3)c3c(-c4ccccc4)nnn3c21 = 22.9 µM
Cn1c2ccccc2c2c(=O)n(CCCC(=O)NCCc3c[nH]cn3)c3c(-c4ccccc4)nnn3c21 = 8.91 µM

Query: Quick one: GI50 for `Cn1c2ccccc2c2c(=O)n(CCCC(=O)N(C(=O)NC3CCCCC3)C3CCCCC3)c3c(-c4ccccc4)nnn3c21` ?
Result: > 100 µM

Query: Here is the next molecule: `CCCCN(CCCC)CCCn1c(=O)c2c3ccccc3n(C)c2n2nnc(-c3ccccc3)c12`
Result: 13.8 µM

Query: Here is the next molecule: COC(=O)C(Cc1c[nH]cn1)NC(=O)CNC(=O)CCCn1c(=O)c2c3ccccc3n(C)c2n2nnc(-c3ccccc3)c12 (stereo unspecified)
Result: > 100 µM

###

Test system: CCRF-CEM
Assay: Growth inhibition of human CCRF-CEM cells after 48 hrs
Format: functional
Conditions: read-out: pTGI (converted)
REPORTED_PROPERTY: TGI (µM)
Quick reminder: number only, in µM, skip the unit.

Cn1c2ccccc2c2c(=O)n(CCCC(=O)NCC(=O)N(C(=O)NC3CCCCC3)C3CCCCC3)c3c(-c4ccccc4)nnn3c21 = 57.5

Turning now to a further compound:
Query: Quick one: TGI for `CCCCN(CCCC)CCCn1c(=O)c2c3ccccc3n(C)c2n2nnc(-c3ccccc3)c12` ?
Result: 91.2

###

Tested on: SNB-19
Experiment: Growth inhibition of human SNB19 cells after 48 hrs
Type: functional
Details: SNB-19, 48 h
Parameter: GI50. Scope: all listed entries.

COC(=O)C(Cc1c[nH]cn1)NC(=O)CNC(=O)CCCn1c(=O)c2c3ccccc3n(C)c2n2nnc(-c3ccccc3)c12 (centres undefined) = > 100 µM
Cn1c2ccccc2c2c(=O)n(CCCC(=O)NCCc3c[nH]cn3)c3c(-c4ccccc4)nnn3c21 = 11.7 µM
CCCCN(CCCC)CCCn1c(=O)c2c3ccccc3n(C)c2n2nnc(-c3ccccc3)c12 = > 100 µM

Turning now to a further molecule:
Query: Quick one: GI50 for `Cn1c2ccccc2c2c(=O)n(CCCC(=O)N(C(=O)NC3CCCCC3)C3CCCCC3)c3c(-c4ccccc4)nnn3c21` ?
Result: > 100 µM
